Just for reference, ChEMBL document CHEMBL1157283 is where these values come from.

# Tested on: A549
# EXPERIMENTAL_DETAILS: Cytotoxicity against human A549 cells
# Assay type: functional, cell-based

| MOLECULE | Activity |
| --- | --- |
| C=C(C)C(O)C/C=C(/COC(C)=O)[C@H]1CC[C@@]2(C)C[C@](O)(CC[C@H]2O)[C@@H]1C(=O)OC (stereo partly drawn) [UMBELLACIN B] | Not toxic |
| COC(=O)[C@@H]1[C@@H](/C(=C\CC(O)C(C)(C)O)COC(C)=O)CC[C@@]2(C)C[C@]1(O)CC[C@H]2O (stereo partly drawn) [UMBELLACIN I] | Not toxic |
| CC(C)(O)/C=C/C=C1/COC(=O)[C@H]2C3=CC[C@@H](O)[C@@](C)(CC[C@H]12)C3 | Not toxic |
